experiment: qHTS of pediatric cancer cell lines to identify multiple opportunities for drug repurposing: Confirmatory screen for MG 63 (6-TG R) cells (AID 1347119); settings: MG-63 (6-TG resistant) osteosarcoma viability; series mostly up to 45.9 µM; note: nearly all actives have a fitted effect of over 55% in size
Results filed as inconclusive are left out. Active and inactive are the calls of the source. Calls come from the whole dose curve; as a rule, active = well fitted cell-killing curve with a large enough effect; inconclusive = small, poorly fitted or top-dose-only effect, or effect the other way; inactive = no such curve, though single readings can be large or run the other way.
Possible outcomes: yes (1) (active), no (0) (inactive)

INSERT INTO assay_data (smiles_structure, label_class) VALUES
  ('O=c1[nH]nc(OCCCc2ccc(Cl)cc2)c(NCc2cccnc2)c1Br', 'yes (1)'),
  ('CO[C@H]1/C=C\O[C@@]2(C)Oc3c(C)c(O)c4c(O)c(c5c(nc6cc(C)ccn65)c4c3C2=O)NC(=O)C(C)=CC=C[C@H](C)[C@H](O)[C@@H](C)[C@@H](O)[C@@H](C)[C@H](OC(C)=O)[C@H]1C', 'no (0)'),
  ('C=C1[C@H](n2cnc3c(=O)[nH]c(N)nc32)C[C@H](O)[C@H]1CO', 'no (0)'),
  ('CON(C)C(=O)N1N=C(c2cc(F)ccc2F)S[C@]1(CCCN)c1ccccc1', 'yes (1)');
